Where do these numbers come from? They come from paper PMC10397247.

Target: T1, 4H2585-bH
T1 chain: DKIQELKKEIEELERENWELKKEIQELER
Experiment: two-hybrid library CCNG1;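 further: natural log of median RNA to DNA barcode read ratio; higher means stronger binding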
Readout: interaction score

I: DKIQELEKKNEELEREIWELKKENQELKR [4H2444-bH]
II: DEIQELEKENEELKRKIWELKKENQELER [4H235-bH]
III: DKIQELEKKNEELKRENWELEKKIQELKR [4H2518-bH]
Give the order of the entries above, sorted from least to greatest interaction score. The labels, placed in the requested order, form the answer.
II, III, I
